The origin of these recorded values is patent US20230265151A1.

target: human glucagon-like peptide-1 (GLP-1) receptor (human, UniProt P43220 24-463); test: cell-based or functional assay
cAMP EC50 values by entry
Could you give me the number in nM? Just the number is fine.

BINDER: YXEGTXTSDXSIXLDXKAQXEFIXXLIEGGPSSGAPPPSK (Aib2, αMeF(2F)6, 4Pal10, αMeL13, Orn16, K17(Z), Aib20, D-Glu24, αMeY25, K40(Z), C-terminal NH2; Z = AEEA3-(γ-Glu)-CO-(CH2)12-CO2H) [Example 225]
VALUE_UNIT: nM
RECORDED_RESULT: 9.62

Recorded cAMP EC50 for YXEGTXTSDXSIXLDXKAQXEFIXXLIKGGPSSGAPPPS (Aib2, αMeF(2F)6, 4Pal10, αMeL13, Orn16, K17(Z), Aib20, D-Glu24, αMeY25, K28(Z), C-terminal NH2; Z = AEEA2-CO-(CH2)12-CO2H) [Example 210] , please?
0.57

Dear colleague, I am looking for the recorded cAMP EC50 of the following binder: YXEGTXTSDXSIXLDXIAQXEFIKXLIKGGPSSGAPPPS (Aib2, αMeF(2F)6, 2Nal10, αMeL13, Orn16, Aib20, K24(Z), αMeY25, K28(Z), C-terminal NH2; Z = AEEA2-(γ-Glu)-CO-(CH2)12-CO2H) [Example 252]
0.555

Return reported cAMP EC50; argument: YXEGTXTSDXSIXLDXIAQXKFIXXLIEGGPSSGAPPPSK (Aib2, αMeF(2F)6, 4Pal10, αMeL13, Orn16, Aib20, K21(Z), D-Glu24, αMeY25, K40(Z), C-terminal NH2; Z = AEEA2-(γ-Glu)-(11-(4-carboxyphenoxy)undecanoyl)) [Example 288]
0.354

Bench note: what cAMP EC50 did YXEGTXTSDXSIXLDXKAQXEFIEXLIEGGKSSGAPPPS (Aib2, αMeF(2F)6, 4Pal10, αMeL13, Orn16, K17(Z), Aib20, αMeF25, K31(Z), C-terminal NH2; Z = AEEA2-(γ-Glu)-CO-(CH2)12-CO2H) [Example 159] show?
0.558

Could you tell me which cAMP EC50 is on file for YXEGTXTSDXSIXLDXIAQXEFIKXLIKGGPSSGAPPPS (Aib2, αMeF(2F)6, 2Nal10, αMeL13, Orn16, Aib20, K24(Z), αMeY25, K28(Z), C-terminal NH2; Z = AEEA2-(γ-Glu)-(10-(4-carboxyphenoxy)decanoyl)) [Example 283] ?
1.14

Bench note: what cAMP EC50 did YXEGTXTSDXSIXLDXKAQXKFIXXLIEGGPSSGAPPPS (Aib2, αMeF(2F)6, OMeY10, αMeL13, Orn16, K17(Z), Aib20, K21(Z), D-Glu24, αMeY25, C-terminal NH2; Z = AEEA2-(γ-Glu)-CO-(CH2)10-CH3) [Example 289] show?
0.731

Can you look up the measured cAMP EC50 of YXEGTXTSDVXIXLDXKAQXEFIXXLIEGGKSSGAPPPS (Aib2, αMeF(2F)6, αMeS11, αMeL13, Orn16, K17(Z), Aib20, D-Glu24, αMeY25, K31(Z), C-terminal NH2; Z = AEEA2-(γ-Glu)-CO-(CH2)12-CO2H) [Example 212] for me?
0.265

Sample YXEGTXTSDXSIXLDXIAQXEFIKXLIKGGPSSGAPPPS (Aib2, αMeF(2F)6, 4Pal10, αMeL13, Orn16, Aib20, K24(Z), αMeY25, K28(Z), C-terminal NH2; Z = AEEA2-(γ-Glu)-(4-(4-tert-butylphenyl)butanoyl)) [Example 203] — what was its cAMP EC50?
0.535

Would you mind telling me what cAMP EC50 value was observed for YXEGTXTSDXSIXLDXKAQXEFIEXLIEGGKSSGAPPPS (Aib2, αMeF(2F)6, 4Pal10, αMeL13, Orn16, K17(Z), Aib20, αMeY25, K31(Z), C-terminal NH2; Z = AEEA2-(γ-Glu)-CO-(CH2)12-CO2H) [Example 158] ?
0.448
